Source of measurements: ChEMBL document CHEMBL2390890

Assay: Inhibition of Bacillus anthracis replicative DNA helicase using Hel-5'FAM:Hel-3'BHQ as substrate assessed as DNA duplex strand unwinding by FRET assay
Kindly state IC50 for each of the entries shown.
State the answer as a number, implicitly in nM.

-- ask Suppose we examine the compound `CSc1nc2ccc3nc(NC(=O)c4cnccn4)sc3c2s1` ; what IC50 value has been reported?
-- reply 28000

-- ask Suppose we examine the compound `CSc1nc2ccc3nc(NC(=O)c4ccc5c(c4)OCCO5)sc3c2s1` ; what IC50 value has been reported?
-- reply 3000

-- ask Suppose we examine the compound `CSc1nc2ccc3nc(NC(=O)c4ccc(N(C)C)cc4)sc3c2s1` ; what IC50 value has been reported?
-- reply 2400

-- ask Suppose we examine the compound `CCCNc1nc2ccc3nc(NC(=O)c4cccc(OC)c4)sc3c2s1` ; what IC50 value has been reported?
-- reply 1100

-- ask Suppose we examine the compound `COc1ccc(C(=O)Nc2nc3ccc4nc(SC)sc4c3s2)cc1` ; what IC50 value has been reported?
-- reply 2200

-- ask Suppose we examine the compound `CSc1nc2ccc3nc(NC(=O)c4cccs4)sc3c2s1` ; what IC50 value has been reported?
-- reply 90000

-- ask Suppose we examine the compound `COc1cccc(C(=O)Nc2nc3ccc4nc(NCCN5CCOCC5)sc4c3s2)c1` ; what IC50 value has been reported?
-- reply 500
